Data provenance: patent US20210402016A1

experimental_protocol: Biodistribution in PC-3 tumor-bearing NSG mice (Example 2)
Assay type: in vivo
assay_context: male, NSG (NOD.Cg-Prkdc^scid Il2rg^tm1Wjl/SzJ), mouse, muscle, iv, total radioactivity, 120 MIN p.i.; read-out: Biodistribution MUSCLE, Mean
Protocol: […]. The mice were sacrificed by CO2 inhalation at 1 h, and 2 h p.i. Blood was collected by cardiac puncture. Organs/tissues were harvested, rinsed with PBS, blotted dry, and weighed. The activity in tissues was assayed by gamma counter and expressed as the percentage injected dose per gram of tissue (% ID/g).
readout_type: tissue uptake at 2 h (%ID/g)
Lab book: enter the figure in %ID/g, no units written.

Give its tissue uptake at 2 h value. Item: CC(C)C[C@@H](CN1CCC[C@H]1C(N)=O)NC(=O)[C@H](Cc1c[nH]cn1)NC(=O)CNC(=O)[C@@H](NC(=O)[C@H](C)NC(=O)[C@H](Cc1c[nH]c2ccccc12)NC(=O)[C@H](CCC(N)=O)NC(=O)[C@@H](Cc1ccccc1)NC(=O)CN1CCC(NC(=O)CN2CCN(CC(=O)O)CCN(CC(=O)O)CCN(CC(=O)O)CC2)CC1)C(C)C [^68Ga-ProBOMB2, metal not drawn] 0.03

* * *

experimental_protocol: Biodistribution in PC-3 tumor-bearing NSG mice (Example 2)
Type: in vivo
assay_context: male, NSG (NOD.Cg-Prkdc^scid Il2rg^tm1Wjl/SzJ), mouse, spleen, iv, total radioactivity, 60 MIN p.i.; read-out: Biodistribution SPLEEN, Mean
readout_type: tissue uptake at 1 h (%ID/g)
Write the number in %ID/g without appending the unit.

tissue uptake at 1 h for CC(C)C[C@@H](CN1CCC[C@H]1C(N)=O)NC(=O)[C@H](Cc1c[nH]cn1)NC(=O)CNC(=O)[C@@H](NC(=O)[C@H](C)NC(=O)[C@H](Cc1c[nH]c2ccccc12)NC(=O)[C@H](CCC(N)=O)NC(=O)[C@@H](Cc1ccccc1)NC(=O)CN1CCC(NC(=O)CN2CCN(CC(=O)O)CCN(CC(=O)O)CCN(CC(=O)O)CC2)CC1)C(C)C [^68Ga-ProBOMB2, metal not drawn] ? 0.27

* * *

experimental_protocol: Biodistribution in PC-3 tumor-bearing NSG mice (Example 2)
Assay type: in vivo
assay_context: male, NSG (NOD.Cg-Prkdc^scid Il2rg^tm1Wjl/SzJ), mouse, testes, iv, total radioactivity, 60 MIN BLOCKED, co-injection of 100 μg of [D-Phe^6,Leu-NHEt^13,des-Met^14]Bombesin(6-14); read-out: Biodistribution TESTES, Mean
Experimental: […]. The mice were sacrificed by CO2 inhalation at 1 h, and 2 h p.i. Blood was collected by cardiac puncture. Organs/tissues were harvested, rinsed with PBS, blotted dry, and weighed. The activity in tissues was assayed by gamma counter and expressed as the percentage injected dose per gram of tissue (% ID/g).
readout_type: tissue uptake at 1 h
Phrase the answer as number then unit, nothing more needed.

What measured tissue uptake at 1 h goes with CC(C)C[C@@H](CN1CCC[C@H]1C(N)=O)NC(=O)[C@H](Cc1c[nH]cn1)NC(=O)CNC(=O)[C@@H](NC(=O)[C@H](C)NC(=O)[C@H](Cc1c[nH]c2ccccc12)NC(=O)[C@H](CCC(N)=O)NC(=O)[C@@H](Cc1ccccc1)NC(=O)CN1CCC(NC(=O)CN2CCN(CC(=O)O)CCN(CC(=O)O)CCN(CC(=O)O)CC2)CC1)C(C)C [^68Ga-ProBOMB2, metal not drawn] ? 0.21 %ID/g

* * *

experimental_protocol: Biodistribution in PC-3 tumor-bearing NSG mice (Example 2)
Type: in vivo
assay_context: male, NSG (NOD.Cg-Prkdc^scid Il2rg^tm1Wjl/SzJ), mouse, stomach, iv, total radioactivity, 120 MIN p.i.; read-out: Biodistribution STOMACH, Mean
readout_type: tissue uptake at 2 h (%ID/g)
Report as a plain number; the unit %ID/g is understood.

Given the entry CC(C)C[C@@H](CN1CCC[C@H]1C(N)=O)NC(=O)[C@H](Cc1c[nH]cn1)NC(=O)CNC(=O)[C@@H](NC(=O)[C@H](C)NC(=O)[C@H](Cc1c[nH]c2ccccc12)NC(=O)[C@H](CCC(N)=O)NC(=O)[C@@H](Cc1ccccc1)NC(=O)CN1CCC(NC(=O)CN2CCN(CC(=O)O)CCN(CC(=O)O)CCN(CC(=O)O)CC2)CC1)C(C)C [^68Ga-ProBOMB2, metal not drawn] , report its measured tissue uptake at 2 h. 0.06

* * *

experimental_protocol: Biodistribution in PC-3 tumor-bearing NSG mice (Example 2)
Assay type: in vivo
assay_context: male, NSG (NOD.Cg-Prkdc^scid Il2rg^tm1Wjl/SzJ), mouse, tumor/liver, iv, total radioactivity, 120 MIN p.i.; read-out: TUMOR-TO-LIVER ratio, Mean
readout_type: tissue to tissue ratio at 2 h
Lab note: record just the number, no unit beside it.

Return reported tissue to tissue ratio at 2 h; argument: CC(C)C[C@@H](CN1CCC[C@H]1C(N)=O)NC(=O)[C@H](Cc1c[nH]cn1)NC(=O)CNC(=O)[C@@H](NC(=O)[C@H](C)NC(=O)[C@H](Cc1c[nH]c2ccccc12)NC(=O)[C@H](CCC(N)=O)NC(=O)[C@@H](Cc1ccccc1)NC(=O)CN1CCC(NC(=O)CN2CCN(CC(=O)O)CCN(CC(=O)O)CCN(CC(=O)O)CC2)CC1)C(C)C [^68Ga-ProBOMB2, metal not drawn] 35

* * *

experimental_protocol: Biodistribution in PC-3 tumor-bearing NRG mice (Example 1)
Type: in vivo
assay_context: male, NRG (NOD.Cg-Rag1tm1Mom Il2rgtm1Wjl/SzJ), mouse, adrenals, iv, 1.84 MBq, total radioactivity; 30 min p.i.; read-out: Biodistribution Adrenals, Mean
Method: The mice were sacrificed by CO2 inhalation at 30 min, 1 h, and 2 h p.i. Blood was collected by cardiac puncture. Organs/tissues were harvested, rinsed with PBS, blotted dry, and weighed. The activity in tissues was assayed by gamma counter and expressed as the percentage injected dose per gram of tissue (% ID/g).
readout_type: tissue uptake at 0.5 h (%ID/g)
Numeric only. Scale: %ID/g

Would you mind telling me what tissue uptake at 0.5 h value was observed for CC(C)C[C@@H](CN1CCC[C@H]1C(N)=O)NC(=O)[C@H](Cc1c[nH]cn1)NC(=O)CNC(=O)[C@@H](NC(=O)[C@H](C)NC(=O)[C@H](Cc1c[nH]c2ccccc12)NC(=O)[C@H](CCC(N)=O)NC(=O)[C@@H](Cc1ccccc1)NC(=O)COCC(=O)Nc1ccc(CNC(=O)CN2CCN(CC(=O)O)CCN(CC(=O)O)CCN(CC(=O)O)CC2)cc1)C(C)C [^68Ga-ProBOMB1, metal not drawn] ? 0.95

* * *

experimental_protocol: Biodistribution in PC-3 tumor-bearing NSG mice (Example 2)
Type: in vivo
assay_context: male, NSG (NOD.Cg-Prkdc^scid Il2rg^tm1Wjl/SzJ), mouse, pancreas, iv, total radioactivity, Biodistribution PANCREAS, Mean, 60 MIN BLOCKED, co-injection of 100 μg of [D-Phe^6,Leu-NHEt^13,des-Met^14]Bombesin(6-14); read-out: Biodistribution […], Mean
readout_type: tissue uptake at 1 h (%ID/g)
Enter your answer as a number in %ID/g; do not include the unit.

Recorded tissue uptake at 1 h of CC(C)C[C@@H](CN1CCC[C@H]1C(N)=O)NC(=O)[C@H](Cc1c[nH]cn1)NC(=O)CNC(=O)[C@@H](NC(=O)[C@H](C)NC(=O)[C@H](Cc1c[nH]c2ccccc12)NC(=O)[C@H](CCC(N)=O)NC(=O)[C@@H](Cc1ccccc1)NC(=O)CN1CCC(NC(=O)CN2CCN(CC(=O)O)CCN(CC(=O)O)CCN(CC(=O)O)CC2)CC1)C(C)C [^68Ga-ProBOMB2, metal not drawn] , please. 0.62

* * *

experimental_protocol: Biodistribution in PC-3 tumor-bearing NSG mice (Example 2)
Format: in vivo
assay_context: male, NSG (NOD.Cg-Prkdc^scid Il2rg^tm1Wjl/SzJ), mouse, tumor/bone, iv, total radioactivity, 60 MIN BLOCKED, co-injection of 100 μg of [D-Phe^6,Leu-NHEt^13,des-Met^14]Bombesin(6-14); read-out: TUMOR-TO-BONE ratio, Mean
readout_type: tissue to tissue ratio at 1 h

Which value of tissue to tissue ratio at 1 h has been reported for CC(C)C[C@@H](CN1CCC[C@H]1C(N)=O)NC(=O)[C@H](Cc1c[nH]cn1)NC(=O)CNC(=O)[C@@H](NC(=O)[C@H](C)NC(=O)[C@H](Cc1c[nH]c2ccccc12)NC(=O)[C@H](CCC(N)=O)NC(=O)[C@@H](Cc1ccccc1)NC(=O)CN1CCC(NC(=O)CN2CCN(CC(=O)O)CCN(CC(=O)O)CCN(CC(=O)O)CC2)CC1)C(C)C [^68Ga-ProBOMB2, metal not drawn] in the records? 39.8

* * *

experimental_protocol: Biodistribution in PC-3 tumor-bearing NRG mice (Example 1)
Type: in vivo
assay_context: male, NRG (NOD.Cg-Rag1tm1Mom Il2rgtm1Wjl/SzJ), mouse, PC-3 tumor, iv, 1.84 MBq, total radioactivity; 60 min p.i.; read-out: Biodistribution PC-3 Tumor, Mean
Protocol: The mice were sacrificed by CO2 inhalation at 30 min, 1 h, and 2 h p.i. Blood was collected by cardiac puncture. Organs/tissues were harvested, rinsed with PBS, blotted dry, and weighed. The activity in tissues was assayed by gamma counter and expressed as the percentage injected dose per gram of tissue (% ID/g).
readout_type: tissue uptake at 1 h (%ID/g)
Dear colleague, please return just the value in %ID/g, with no unit written.

# input compound: CC(C)C[C@@H](CN1CCC[C@H]1C(N)=O)NC(=O)[C@H](Cc1c[nH]cn1)NC(=O)CNC(=O)[C@@H](NC(=O)[C@H](C)NC(=O)[C@H](Cc1c[nH]c2ccccc12)NC(=O)[C@H](CCC(N)=O)NC(=O)[C@@H](Cc1ccccc1)NC(=O)COCC(=O)Nc1ccc(CNC(=O)CN2CCN(CC(=O)O)CCN(CC(=O)O)CCN(CC(=O)O)CC2)cc1)C(C)C [^68Ga-ProBOMB1, metal not drawn] ; wanted: its tissue uptake at 1 h 8.17
